Listed here are sequences together with their documented protein stability index.
- experimental details: protein stability index of a GFP-peptide fusion (GPS, HEK-293T) (PSI 1-6); higher = more stable;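 note: 24-mer peptide tiles fused after GFP, lentivirally expressed, FACS-sorted into six equal bins by GFP/DsRed ratio, decoded by Illumina sequencing, PSI is the read-weighted mean bin number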
- assay context: treatment: DMSO; c terminus: a fixed tail appended

Some solved entries appear below for comparison.
INSERT INTO measurements (polymer_sequence, result) VALUES
  ('ASSSRSVRTTRGKRKRVDVEESEA [LMNB1]', 5.22),
  ('LGGAAFLGTAIFIEADRRRAQLHV [SPNS1]', 2.35),
  ('PPATLGEGSADTEDRKLPAPGADV [EHMT1]', 5.47),
  ('AERLRAELLDLKAGGFSIRNQKGE [MYORG]', 4.1),
  ('ILLDGSEYTCDVEKRSRGQVLFDK [EPB41L3]', 2.86);

In: Dear colleague, I am looking for the recorded protein stability index of the following sequence: QEALDPGPFDQGSPFAQELLDDGQ [ELF3]
Out: 5.58
